- assay: AUC in Sprague-Dawley rat at 5 mg/kg, po
- Format: ADME, organism-based
- Set-up: dose 5 mg/kg, route oral
- conditionLabel: plasma
quantityName: AUC (µM·h)

INSERT INTO assay_data (smi, readoutvalue) VALUES
  ('CC(C)(O)C1CCN(Cc2ccc3nc(-c4c(F)ccc5[nH]ccc45)nc(N4CCOCC4)c3n2)CC1', 2.6);

====

- assay: Cmax in BALB/c mouse at 20 mg/kg, po
- Type: ADME, organism-based
- Design: dose 20 mg/kg, route oral
- conditionLabel: in vivo
quantityName: Cmax

INSERT INTO results (smi, readoutvalue) VALUES
  ('CC(C)(O)C1CCN(Cc2ccc3nc(-c4c(F)ccc5[nH]ccc45)nc(N4CCOCC4)c3n2)CC1', '3.9 µM');

====

- assay: Selectivity ratio of IC50 for PI3Kgamma to IC50 for PI3Kdelta
quantityName: Ratio IC50

INSERT INTO measurements (smi, readoutvalue) VALUES
  ('CC(C)(O)C1CCN(Cc2ccc3nc(-c4cccc5[nH]ncc45)nc(N4CCOCC4)c3n2)CC1', 260),
  ('CC(C)(O)C1CCN(Cc2ccc3nc(-c4cnc(N)nc4)nc(N4CCOCC4)c3n2)CC1', 43),
  ('OCc1ccc2nc(-c3c(F)ccc4[nH]ccc34)nc(N3CCOCC3)c2n1', 38),
  ('CC(C)(O)C1CCN(Cc2nc3c(N4CCOCC4)nc(-c4c(F)ccc5[nH]ccc45)nc3[nH]2)CC1', 1500),
  ('CC(C)(O)C1CCN(Cc2ccc3nc(-c4cccc5[nH]ccc45)nc(N4CCOCC4)c3n2)CC1', 610),
  ('Fc1ccc2[nH]ccc2c1-c1nc(N2CCOCC2)c2nc(CN3CCOCC3)ccc2n1', 120),
  ('CC(C)(O)C1CCN(Cc2cc3nc(-c4c(F)ccc5[nH]ccc45)nc(N4CCOCC4)c3s2)CC1', 910),
  ('CC(C)(O)C1CCN(Cc2nc3c(N4CCOCC4)nc(-c4c(F)ccc5[nH]ccc45)nc3s2)CC1', 1400);

====

- assay: Half life in Sprague-Dawley rat at 10 mg/kg, po
- Type: ADME, organism-based
- Design: dose 10 mg/kg, route oral
- conditionLabel: in vivo
quantityName: half-life (h)

INSERT INTO results (smi, readoutvalue) VALUES
  ('CC(C)(O)C1CCN(Cc2ccc3nc(-c4c(F)ccc5[nH]ccc45)nc(N4CCOCC4)c3n2)CC1', 3.8);

====

- assay: Clearance in CD1 mouse at 1 mg/kg, iv
- Format: ADME, organism-based
- Set-up: dose 1 mg/kg, route intravenous
- conditionLabel: in vivo
quantityName: clearance (mL/min/kg)

INSERT INTO measurements (smi, unitabbreviation, readoutvalue) VALUES
  ('CC(C)(O)C1CCN(Cc2ccc3nc(-c4c(F)ccc5[nH]ccc45)nc(N4CCOCC4)c3n2)CC1', 'mL/min/kg', 53);

====

- assay: Cmax in BALB/c mouse at 40 mg/kg, po
- Assay type: ADME, organism-based
- Parameters: dose 40 mg/kg, route oral
- conditionLabel: in vivo
quantityName: Cmax (µM)

INSERT INTO measurements (smi, quantityname, unitabbreviation, readoutvalue) VALUES
  ('CC(C)(O)C1CCN(Cc2ccc3nc(-c4c(F)ccc5[nH]ccc45)nc(N4CCOCC4)c3n2)CC1', 'Cmax', 'µM', 14);

====

- assay: Cmax in Sprague-Dawley rat at 5 mg/kg, po
- Format: ADME, organism-based
- Set-up: dose 5 mg/kg, route oral
- conditionLabel: in vivo
quantityName: Cmax (nM)

INSERT INTO results (smi, readoutvalue) VALUES
  ('CC(C)(O)C1CCN(Cc2ccc3nc(-c4c(F)ccc5[nH]ccc45)nc(N4CCOCC4)c3n2)CC1', 500);

====

- assay: Clearance in Sprague-Dawley rat at 1 mg/kg, iv
- Assay type: ADME, organism-based
- Set-up: dose 1 mg/kg, route intravenous
- conditionLabel: in vivo
quantityName: clearance (mL/min/kg)

INSERT INTO assay_data (smi, readoutvalue) VALUES
  ('CC(C)(O)C1CCN(Cc2ccc3nc(-c4c(F)ccc5[nH]ccc45)nc(N4CCOCC4)c3n2)CC1', 59);

====

- assay: AUC in CD1 mouse at 5 mg/kg, po
- Assay type: ADME, organism-based
- Parameters: dose 5 mg/kg, route oral
- conditionLabel: plasma
quantityName: AUC

INSERT INTO assay_data (smi, readoutvalue) VALUES
  ('CC(C)(O)C1CCN(Cc2ccc3nc(-c4c(F)ccc5[nH]ccc45)nc(N4CCOCC4)c3n2)CC1', '2.5 µM·h');

====

- assay: Half life in Sprague-Dawley rat at 5 mg/kg, po
- Format: ADME, organism-based
- Parameters: dose 5 mg/kg, route oral
- conditionLabel: in vivo
quantityName: half-life (h)

INSERT INTO results (smi, unitabbreviation, readoutvalue) VALUES
  ('CC(C)(O)C1CCN(Cc2ccc3nc(-c4c(F)ccc5[nH]ccc45)nc(N4CCOCC4)c3n2)CC1', 'h', 2.6);

====

- assay: Volume of distribution at steady state in CD1 mouse at 1 mg/kg, iv
- Type: ADME, organism-based
- Parameters: dose 1 mg/kg, route intravenous
- conditionLabel: in vivo, read-out: Vdss
quantityName: Vd (L/kg)

INSERT INTO assay_data (smi, quantityname, readoutvalue) VALUES
  ('CC(C)(O)C1CCN(Cc2ccc3nc(-c4c(F)ccc5[nH]ccc45)nc(N4CCOCC4)c3n2)CC1', 'Vd', 4.9);

====

- assay: Cmax in Sprague-Dawley rat at 30 mg/kg, po
- Format: ADME, organism-based
- Set-up: dose 30 mg/kg, route oral
- conditionLabel: in vivo
quantityName: Cmax (µM)

INSERT INTO measurements (smi, quantityname, unitabbreviation, readoutvalue) VALUES
  ('CC(C)(O)C1CCN(Cc2ccc3nc(-c4c(F)ccc5[nH]ccc45)nc(N4CCOCC4)c3n2)CC1', 'Cmax', 'µM', 4.7);

====

- assay: Half life in CD1 mouse at 5 mg/kg, po
- Type: ADME, organism-based
- Design: dose 5 mg/kg, route oral
- conditionLabel: in vivo
quantityName: half-life (h)

INSERT INTO assay_data (smi, readoutvalue) VALUES
  ('CC(C)(O)C1CCN(Cc2ccc3nc(-c4c(F)ccc5[nH]ccc45)nc(N4CCOCC4)c3n2)CC1', 2.6);

====

- assay: Selectivity ratio of IC50 for PI3Kalpha to IC50 for PI3Kdelta
Items are presented alongside their recorded Ratio IC50.
quantityName: Ratio IC50

INSERT INTO assay_data (smi, readoutvalue) VALUES
  ('CC(C)(O)C1CCN(Cc2nc3c(N4CCOCC4)nc(-c4c(F)ccc5[nH]ccc45)nc3s2)CC1', 220),
  ('CC(C)(O)C1CCN(Cc2ccc3nc(-c4cnc(N)nc4)nc(N4CCOCC4)c3n2)CC1', 5.4),
  ('CC(C)(O)C1CCN(Cc2nc3c(N4CCOCC4)nc(-c4c(F)ccc5[nH]ccc45)nc3[nH]2)CC1', 330),
  ('CC(C)(O)C1CCN(Cc2ccc3nc(-c4cccc5[nH]ncc45)nc(N4CCOCC4)c3n2)CC1', 22),
  ('Fc1ccc2[nH]ccc2c1-c1nc(N2CCOCC2)c2nc(CN3CCOCC3)ccc2n1', 58),
  ('CC(C)(O)C1CCN(Cc2ccc3nc(-c4cccc5[nH]ccc45)nc(N4CCOCC4)c3n2)CC1', 370),
  ('CC(C)(O)C1CCN(Cc2cc3nc(-c4c(F)ccc5[nH]ccc45)nc(N4CCOCC4)c3s2)CC1', 170),
  ('OCc1ccc2nc(-c3c(F)ccc4[nH]ccc34)nc(N3CCOCC3)c2n1', 14);

====

- assay: Volume of distribution at steady state in Sprague-Dawley rat at 1 mg/kg, iv
- Assay type: ADME, organism-based
- Design: dose 1 mg/kg, route intravenous
- conditionLabel: in vivo, read-out: Vdss
quantityName: Vd (L/kg)

INSERT INTO measurements (smi, quantityname, readoutvalue) VALUES
  ('CC(C)(O)C1CCN(Cc2ccc3nc(-c4c(F)ccc5[nH]ccc45)nc(N4CCOCC4)c3n2)CC1', 'Vd', 8.8);

====

Items are presented alongside their recorded pIC50.
- targetOfAssay: Phosphatidylinositol 4,5-bisphosphate 3-kinase catalytic subunit delta isoform (Homo sapiens)
- Sequence (O00329 whole entry, canonical isoform): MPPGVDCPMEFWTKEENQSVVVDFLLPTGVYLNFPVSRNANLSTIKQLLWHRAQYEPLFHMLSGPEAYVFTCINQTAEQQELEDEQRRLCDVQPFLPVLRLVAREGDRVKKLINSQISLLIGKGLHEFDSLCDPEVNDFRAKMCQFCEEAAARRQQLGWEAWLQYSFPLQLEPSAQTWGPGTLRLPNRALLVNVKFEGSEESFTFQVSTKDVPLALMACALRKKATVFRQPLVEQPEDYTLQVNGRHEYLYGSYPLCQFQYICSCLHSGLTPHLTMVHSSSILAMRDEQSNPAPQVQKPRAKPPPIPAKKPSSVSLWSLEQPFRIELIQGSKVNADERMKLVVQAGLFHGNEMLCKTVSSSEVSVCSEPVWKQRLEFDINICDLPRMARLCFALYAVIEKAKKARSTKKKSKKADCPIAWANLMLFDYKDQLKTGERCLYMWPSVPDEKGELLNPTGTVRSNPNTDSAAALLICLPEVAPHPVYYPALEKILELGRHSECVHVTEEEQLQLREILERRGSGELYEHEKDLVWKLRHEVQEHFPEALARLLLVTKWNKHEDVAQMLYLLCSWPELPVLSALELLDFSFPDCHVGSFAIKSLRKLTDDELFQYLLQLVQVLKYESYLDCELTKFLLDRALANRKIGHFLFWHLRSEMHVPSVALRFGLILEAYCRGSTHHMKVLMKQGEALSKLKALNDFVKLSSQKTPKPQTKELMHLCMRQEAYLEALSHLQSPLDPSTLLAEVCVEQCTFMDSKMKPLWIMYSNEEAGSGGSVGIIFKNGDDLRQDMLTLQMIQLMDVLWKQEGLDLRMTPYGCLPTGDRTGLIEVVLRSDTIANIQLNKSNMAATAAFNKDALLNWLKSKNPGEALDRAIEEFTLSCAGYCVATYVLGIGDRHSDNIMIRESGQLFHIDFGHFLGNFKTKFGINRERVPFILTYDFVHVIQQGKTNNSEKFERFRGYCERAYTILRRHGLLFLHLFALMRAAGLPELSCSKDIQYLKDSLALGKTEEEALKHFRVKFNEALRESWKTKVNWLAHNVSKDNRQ
- assay: Inhibition of PI3K p110delta using PIP2 as substrate assessed as PIP3 formation by fluorescence polarization assay
pIC50: −log10 of the molar value.
quantityName: pIC50

INSERT INTO results (smi, readoutvalue) VALUES
  ('CC(C)(O)C1CCN(Cc2nc3nc(-c4c(F)ccc5[nH]ccc45)nc(N4CCOCC4)c3[nH]2)CC1', 8.72),
  ('CC(C)(O)C1CCN(Cc2cc3nc(-c4c(F)ccc5[nH]ccc45)nc(N4CCOCC4)c3s2)CC1', 8.40),
  ('OCc1ccc2nc(-c3c(F)ccc4[nH]ccc34)nc(N3CCOCC3)c2n1', 7.57),
  ('CC(C)(O)C1CCN(Cc2nc3c(N4CCOCC4)nc(-c4c(F)ccc5[nH]ccc45)nc3s2)CC1', 9.22),
  ('CC(C)(O)C1CCN(Cc2ccc3nc(-c4cnc(N)nc4)nc(N4CCOCC4)c3n2)CC1', 8.59),
  ('Fc1ccc2[nH]ccc2c1-c1nc(N2CCOCC2)c2nc(CN3CCOCC3)ccc2n1', 7.92);
